- System: SMN2
- measurementDescription: Splicing RT-qPCR panel, SMN2 canonical junction (CJ) mRNA
- Format: cell-based, human
- conditionInfo: Homo sapiens, gene panel, CJ qPCR, protocol of Example 142; read-out: SMN2 IC50 (decrease in CJ mRNA levels)
Listing of entries alongside the reported IC50.

Below: 3 compounds and their reported IC50.
compound=CCOc1nc(-c2ccc(OC3CC(C)(C)NC(C)(C)C3)nn2)cc(F)c1-c1cn[nH]c1 measured="< 100 nM"
compound=COc1cc(-c2ccc(-c3ccc(N(C)[C@@H]4C[C@H]5CC[C@@H](C4)N5)nn3)nc2OC)ncn1 measured="100 to 1000 nM"
compound=CCOc1nc(-c2ccc(N(C)[C@@H]3C[C@H]4CC[C@@H](C3)N4)nn2)ccc1-c1cn[nH]c1 measured="< 100 nM"

IN: Which value of IC50 has been reported for COc1nc(-c2ccc(O[C@@H]3C[C@H]4CC[C@@H](C3)N4)nn2)ccc1-c1ccnc(C)c1 in the records?
OUT: 1000 to 10000 nM

IN: What do you get for COc1nc(-c2ccc(NC3CCNCC3)nn2)ccc1-c1cnn(C)c1 ?
OUT: 100 to 1000 nM

IN: What do you get for COc1nc(-c2ccc(N(C)[C@@H]3C[C@H]4CC[C@@H](C3)N4)nn2)cc(F)c1-c1cn[nH]c1 ?
OUT: < 100 nM

IN: What do you get for COc1nc(-c2ccc(N(C)[C@@H]3C[C@H]4CC[C@@H](C3)N4)nn2)ccc1-c1cnnc(C)c1 ?
OUT: 100 to 1000 nM

IN: What do you get for CN(c1ccc(-c2ccc(-c3cn[nH]c3)cn2)nn1)[C@@H]1C[C@H]2CC[C@@H](C1)N2 ?
OUT: > 10000 nM

IN: What do you get for COc1nc(-c2ccc(N(C)C3C[C@H]4CC[C@@H](C3)N4)nn2)ccc1-c1cnn(C)n1 (stereo partly shown) ?
OUT: 100 to 1000 nM

IN: What do you get for COc1cc(-c2ccc(N(C)[C@@H]3C[C@H]4CC[C@@H](C3)N4)nn2)ncc1-c1cn[nH]c1 ?
OUT: 1000 to 10000 nM

IN: What do you get for COc1nc(-c2ccc(N(C)[C@@H]3C[C@H]4CC[C@@H](C3)N4)nn2)ccc1-c1cn(C)nn1 ?
OUT: < 100 nM

IN: What do you get for COc1nc(-c2ccc(OC3CC(C)(C)NC(C)(C)C3)nc2)ccc1-c1cnn(C)n1 ?
OUT: 1000 to 10000 nM

IN: What do you get for COc1nc(-c2ccc(NC3CCNCC3)nc2)ccc1-n1cccn1 ?
OUT: 1000 to 10000 nM

IN: What do you get for COc1nc(-c2ccc(N(C)C3CC(C)(C)NC(C)(C)C3)nn2)ccc1-n1cccn1 ?
OUT: 100 to 1000 nM

IN: What do you get for COc1nc(-c2ccc(OC3CC(C)(C)NC(C)(C)C3)nc2)ccc1-n1cccn1 ?
OUT: > 10000 nM

IN: What do you get for COc1nc(-c2ccc(NC3CCNCC3)nc2)ccc1-c1cnn(C)n1 ?
OUT: 100 to 1000 nM

###

- Tested on: MYB
- measurementDescription: Splicing RT-qPCR assay, MYB mRNA canonical junction (CJ) and alternative junction (AJ)
- Format: cell-based, human
- conditionInfo: Homo sapiens, 24 h, decrease in CJ mRNA; A673 or K562 cells, 24 hours treatment, RT-qPCR; read-out: MYB CJ IC50
recordedMetric: IC50

structurenotation=c1nc2c(-c3cn[nH]c3)ccc(-c3ccc(N4CCC5(CCNC5)CC4)nn3)c2s1 measured="> 10000 nM"
structurenotation=CN(c1cnc(-c2cc(F)c(-c3cnn(C)c3)c3cn[nH]c23)nn1)[C@@H]1C[C@H]2CC[C@@H](C1)N2 measured="1000 to 10000 nM"
structurenotation=COc1cc(-c2ccc(-c3ccc(N(C)C4CC(C)(C)NC(C)(C)C4)nn3)c3ncsc23)ccn1 measured="1000 to 10000 nM"

IN: Give the reported IC50 for c1cnn(-c2ccc(-c3ccc(N[C@@H]4C[C@H]5CC[C@@H](C4)N5)nn3)c3scnc23)c1 (system: MYB).
OUT: 100 to 1000 nM

IN: What do you get for CN(c1ccc(-c2ccc(-n3cccn3)c3nc[nH]c23)nn1)[C@@H]1C[C@H]2CC[C@@H](C1)N2 ?
OUT: 1000 to 10000 nM

IN: What do you get for [2H]C([2H])([2H])N(c1ccc(-c2ccc(-c3cn[nH]c3)c3ncsc23)nn1)[C@@H]1C[C@H]2CC[C@@H](C1)N2 ?
OUT: < 100 nM

IN: What do you get for CN(c1ccc(-c2ccc(-c3cn[nH]c3)c3ncsc23)nn1)[C@@H]1C[C@H]2CC[C@@H](C1)N2 ?
OUT: 100 to 1000 nM
